system_tested: Delta-type opioid receptor (Rattus norvegicus, UniProt P33533)
Sequence (P33533 whole entry): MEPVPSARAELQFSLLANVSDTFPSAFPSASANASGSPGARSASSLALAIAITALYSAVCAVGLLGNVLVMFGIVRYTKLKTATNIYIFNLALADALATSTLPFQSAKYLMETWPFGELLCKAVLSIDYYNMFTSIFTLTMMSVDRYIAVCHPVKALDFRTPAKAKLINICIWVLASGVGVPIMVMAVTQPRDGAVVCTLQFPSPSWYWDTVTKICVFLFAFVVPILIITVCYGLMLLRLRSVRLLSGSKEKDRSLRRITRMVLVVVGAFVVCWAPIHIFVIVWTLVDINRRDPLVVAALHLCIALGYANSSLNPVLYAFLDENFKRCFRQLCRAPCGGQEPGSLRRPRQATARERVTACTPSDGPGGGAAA
test_description: In vito concentration required to displace [3H]DADLE (Kd = 12.2 nM and concentration is 2.1 nM) from low affinity delta-site in rat brain membranes.
Type: cell membranes
assay_readout: pKi
Lab note — pKi values are minus log10 of concentrations in M.

Sample answers from the record:
> print(dat)
                                item.smiles  assay.readout  numeric.value
1  Oc1ccc2c3c1O[C@H]1[C@@H](Br)CC[C@@]4(O)[C@@H](C2)N(CC2CC2)CC[C@]314            pKi           8.31
2  Oc1ccc2c3c1O[C@H]1[C@@H](I)CC[C@@]4(O)[C@@H](C2)N(CC2CC2)CC[C@]314            pKi           8.16
3  Oc1ccc2c3c1O[C@H]1[C@H](F)CC[C@@]4(O)[C@@H](C2)N(CC2CC2)CC[C@]314            pKi           7.86

Shift focus to the following entry.
Challenge: Using the record for `Oc1ccc2c3c1O[C@H]1[C@H](I)CC[C@@]4(O)[C@@H](C2)N(CC2CC2)CC[C@]314` , state its measured pKi.
Response given: 8.65

###

system_tested: Delta-type opioid receptor (Rattus norvegicus, UniProt P33533)
test_description: In vito concentration required to displace [3H]-DADLE (Kd = 12.2 nM and concentration is 2.1 nM) from low affinity delta-site in rat brain membranes.
Assay type: cell membranes
assay_readout: IC50 (nM)
Value expressed in nM; do not type the unit.

Sample answers from the record:
> print(dat)
                                item.smiles  units  numeric.value
1  Oc1ccc2c3c1O[C@H]1[C@H](F)CC[C@@]4(O)[C@@H](C2)N(CC2CC2)CC[C@]314     nM           16.2
2  Oc1ccc2c3c1O[C@H]1[C@@H](Br)CC[C@@]4(O)[C@@H](C2)N(CC2CC2)CC[C@]314     nM           5.77

Challenge: # assay system Delta-type opioid receptor (Rattus norvegicus, UniProt P33533): give IC50 of `Oc1ccc2c3c1O[C@H]1[C@H](I)CC[C@@]4(O)[C@@H](C2)N(CC2CC2)CC[C@]314`
Response given: 2.64

Challenge: # assay system Delta-type opioid receptor (Rattus norvegicus, UniProt P33533): give IC50 of `Oc1ccc2c3c1O[C@H]1[C@@H](I)CC[C@@]4(O)[C@@H](C2)N(CC2CC2)CC[C@]314`
Response given: 8.06

###

Reported pKi values are given for each entry in this list.
system_tested: Kappa-type opioid receptor (Cavia porcellus, UniProt P41144)
Sequence (P41144 whole entry): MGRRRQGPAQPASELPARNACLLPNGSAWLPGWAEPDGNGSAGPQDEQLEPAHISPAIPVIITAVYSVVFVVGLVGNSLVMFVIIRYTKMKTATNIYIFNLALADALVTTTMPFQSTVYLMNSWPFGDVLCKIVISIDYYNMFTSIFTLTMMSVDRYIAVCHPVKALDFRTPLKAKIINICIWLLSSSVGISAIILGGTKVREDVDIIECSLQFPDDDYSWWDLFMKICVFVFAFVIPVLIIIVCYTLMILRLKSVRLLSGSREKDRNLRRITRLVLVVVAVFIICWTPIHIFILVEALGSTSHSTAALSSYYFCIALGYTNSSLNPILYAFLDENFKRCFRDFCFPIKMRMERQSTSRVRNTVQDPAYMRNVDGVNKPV
test_description: In vito concentration required to displace 9 (Kd = […] and concentration is 1.8 nM) from opioid receptor kappa 1 in guinea brain membranes.
Assay type: cell membranes
Lab note — pKi values are minus log10 of concentrations in M.

> print(dat)
                                item.smiles  numeric.value
1  Oc1ccc2c3c1O[C@H]1[C@@H](Br)CC[C@@]4(O)[C@@H](C2)N(CC2CC2)CC[C@]314           9.49

Shift focus to the following entry.
Challenge: # assay system Kappa-type opioid receptor (Cavia porcellus, UniProt P41144): give pKi of `Oc1ccc2c3c1O[C@H]1[C@H](F)CC[C@@]4(O)[C@@H](C2)N(CC2CC2)CC[C@]314`
Response given: 8.43

Every entry's value here was drawn from ChEMBL document CHEMBL1125501.
